- test_target: Human immunodeficiency virus type 1 reverse transcriptase (Human immunodeficiency virus 1, UniProt Q72547)
- protocol_notes: Inhibition of RNA-dependent DNA polymerase activity of wild type Human immunodeficiency virus 1 reverse transcriptase
parameter: IC50 (nM)
Please give a number only; it is taken to be in nM.

INPUT: // IC50 lookup, key: O=C1Nc2ccccc2/C1=N/Nc1nc(-c2ccc(O)c(O)c2)cs1
OUTPUT: 1000

----------
- test_target: UniProt:Q72547
- protocol_notes: Inhibition of ribonuclease H activity of HIV1 reverse transcriptase using as poly(dC)-[3H]poly(rG) as substrate
pIC50: −log10 of the molar value.
# pIC50 per entry

INPUT: Bench note: what pIC50 did COc1ccc2ccccc2c1/C=N\NC(=O)c1ccc(C(C)(C)C)cc1 show?
OUTPUT: 5.08

Others:
INPUT: # get_value(readout='pIC50', item= C/C(=N\NS(=O)(=O)c1ccc(C)cc1)c1c(O)cc(C)oc1=O )
OUTPUT: < 4.00

INPUT: For the compound O=C(N/N=C/c1ccc2c(c1)OCO2)c1ccc2c(c1)OCO2 , what pIC50 is on record?
OUTPUT: < 4.00

INPUT: Item under review: Cc1ccc(S(=O)(=O)N/N=C/c2cc(Cl)ccc2O)cc1 . Reported pIC50?
OUTPUT: < 4.00

INPUT: Endpoint output: pIC50 of COc1ccc(S(=O)(=O)N/N=C/c2cccc[n+]2[O-])cc1OC . Value?
OUTPUT: < 4.00

INPUT: // query pIC50 value for entry Nc1ccc(S(=O)(=O)N/N=C/c2ccccc2[N+](=O)[O-])cc1
OUTPUT: < 4.00

INPUT: Look up pIC50: Cc1ccc(S(=O)(=O)N/N=C2\C(=O)Nc3cc(O)c(C(=O)O)cc32)cc1
OUTPUT: < 4.00

INPUT: Data request, read-out pIC50, for CCn1c2ccccc2c2cc(NC(=O)c3c(C)[nH]c(=O)[nH]c3=S)ccc21
OUTPUT: < 4.00

INPUT: State the recorded pIC50 for this entry: COc1ccccc1Nc1nc(-c2ccc(O)c(O)c2)cs1
OUTPUT: 4.68

INPUT: # pIC50 lookup, item COc1ccccc1C(=O)N/N=C/c1cccc([N+](=O)[O-])c1
OUTPUT: < 4.00

INPUT: // query pIC50 value for entry COc1ccccc1C(=O)N/N=C/c1c(O)ccc2ccccc12
OUTPUT: 4.68

INPUT: Entry under review: OC[C@@H]1O[C@H](n2cnc3c(NCCc4ccc(O)c(O)c4)ncnc32)[C@@H](O)[C@@H]1O . Reported pIC50?
OUTPUT: < 4.00

INPUT: # input compound: O=C(N/N=C/c1ccc(O)cc1O)c1ccc(O)cc1 ; wanted: its pIC50
OUTPUT: < 4.00

INPUT: For the compound shown here, Oc1ccc(Cl)cc1/C=N/NC(=S)Nc1ccc(F)cc1 , give the reported pIC50.
OUTPUT: < 4.00
